Source of measurements: patent US20040018971A1

Target Entity: T1, HLA-A*0201 (human)
T1 construct: also called HLA-A2.1
Method: competition with 125I probe peptide for purified HLA
Where no end group is shown, it is not given here. [ ]: non-standard residue; d: D form. Abu = CC[C@H](N)C(=O)O
Metric Name: pIC50
Here pIC50 is given on a logarithmic scale as minus log10 of the concentration in mol/L.

Which value of pIC50 has been reported for AT[Abu]RWGLLV [Her2/neu.5.T2B3V9 ATBRWGLLV] in the records?
4.78

AMBRWGLLV (B at position 3 = alpha-amino butyric acid) [Her2/neu.5M2B3V9 AMBRWGLLV] ?
7.44

AV[Abu]RWGLLV [Her2/neu.5V2B3V9 AVBRWGLLV] ?
5.00
